Test system: A498 renal
Experiment: NCI tumour cell line growth inhibition, 48 h
endpoint: TGI

# compound, TGI
data = [
    ("COC(=O)[C@H]1C[C@H]1NC(=O)C(CC(=O)OCc1ccccc1)NC(=O)OCc1ccccc1 (stereo not given in full)", "> 100 µM"),
]

Lookup: # query: TGI of entry CCOc1cc2c(cc1O)/C(=N\O)C[C@@H]1[C@@H]2CC[C@]2(C)[C@@H](O)CC[C@@H]12
Found: > 100 µM

Lookup: Thanks! And COc1ccc(OC)c(C23CCCC(C2)N(C)CC3)c1 (stereo not given) ?
Found: 89.9 µM

Lookup: Thanks! And Oc1ccc2oc3c(O)c4ccccc4cc3c2c1 ?
Found: 9.33 µM

Lookup: Thanks! And O=c1oc2ccccc2c(O)c1C1c2c(c3ccccc3oc2=O)Oc2c1c(=O)oc1ccccc21 ?
Found: > 100 µM

Lookup: Thanks! And O1C2C1C1OC1C1OC1C1OC21 (stereo not given) ?
Found: > 100 µM

Lookup: Thanks! And COC1CCC(O)C(/C=C/[N+](=O)[O-])C1 (stereo not given) ?
Found: 14.2 µM
